target: Neuropilin-1 (Homo sapiens) (UniProt O14786); test: NRP-1/CendR peptide interaction modulators – biochemical, fluorescence polarization, uHTS, primary screen (AID 602438); conditions: FAM-RPARPAR peptide binding to NRP-1, fluorescence polarization; at 25 µM
Sequence (O14786 whole entry, looked up): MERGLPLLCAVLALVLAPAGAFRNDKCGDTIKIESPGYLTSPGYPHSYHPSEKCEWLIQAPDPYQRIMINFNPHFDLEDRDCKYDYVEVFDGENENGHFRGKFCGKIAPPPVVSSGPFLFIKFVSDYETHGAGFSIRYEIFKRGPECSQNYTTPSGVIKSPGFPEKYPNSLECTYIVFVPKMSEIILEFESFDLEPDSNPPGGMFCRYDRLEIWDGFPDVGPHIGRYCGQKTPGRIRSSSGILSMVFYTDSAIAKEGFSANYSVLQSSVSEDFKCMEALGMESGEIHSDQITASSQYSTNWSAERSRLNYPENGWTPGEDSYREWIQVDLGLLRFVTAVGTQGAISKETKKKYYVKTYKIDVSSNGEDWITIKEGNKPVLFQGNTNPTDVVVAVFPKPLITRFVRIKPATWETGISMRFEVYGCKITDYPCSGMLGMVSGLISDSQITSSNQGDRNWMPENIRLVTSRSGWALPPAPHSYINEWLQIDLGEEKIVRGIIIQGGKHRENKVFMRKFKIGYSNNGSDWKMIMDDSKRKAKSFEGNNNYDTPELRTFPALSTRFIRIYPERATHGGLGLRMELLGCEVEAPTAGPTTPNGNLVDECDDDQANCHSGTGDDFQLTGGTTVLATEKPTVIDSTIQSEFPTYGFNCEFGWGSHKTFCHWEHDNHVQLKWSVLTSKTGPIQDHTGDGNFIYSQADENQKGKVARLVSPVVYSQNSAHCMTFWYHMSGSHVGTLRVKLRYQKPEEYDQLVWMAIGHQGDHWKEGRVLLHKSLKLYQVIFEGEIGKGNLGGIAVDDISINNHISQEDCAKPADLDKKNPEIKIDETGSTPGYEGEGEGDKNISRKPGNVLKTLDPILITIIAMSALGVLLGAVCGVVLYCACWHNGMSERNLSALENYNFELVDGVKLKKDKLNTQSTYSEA
The whole screen tested about 360,000 compounds, of which about 3,100 (0.86%) were called active.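 Rule for the calls: active = inhibition or corrected inhibition above about 18%, plus a signal ratio from 0.5 to 1.5 (limit read from the data, passing the limit was not always enough); inactive = the rest.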 Only a selection was taken, and actives are over-represented in it overall.
Respond only with the outcome that fits, drawn from active, inactive

Reference set (6 entries):
CCCCC(=O)N(C)c1c(CC)nc2c(OCc3ccc(S(C)(=O)=O)cc3)cccn12
inactive
Cc1cc(C)c(S(=O)(=O)N2CCCC2CNC(=O)c2ccc3c(c2)OCO3)c(C)c1 (configuration not stated)
inactive
CNC(=O)N1c2ccccc2C=Cc2ccccc21
inactive
CCc1nc2c(OCc3ccc(C(=O)OC)cc3)cccn2c1N(C)C(=O)C(C)C
inactive
CC1C(C)N(C(=O)CCl)c2ccccc2N1C(=O)CCl (configuration not stated)
active
Cc1ccc(C(=O)OCC(=O)NC(=O)Cc2ccccc2)c(O)c1
active

## Input Kindly provide the recorded test outcome for the following compound: CC(C)(C)C(=O)c1cnc(Nc2ccccc2)s1
## Output active

## Input Kindly provide the recorded test outcome for the following compound: CC(C)NC(=O)c1ccccc1S(=O)c1ccccc1C#N (configuration not stated)
## Output inactive

## Input Kindly provide the recorded test outcome for the following compound: COc1ccc(Cl)cc1NC(=O)NC(C)C(C)(C)C (configuration not stated)
## Output inactive

## Input Kindly provide the recorded test outcome for the following compound: COCC1CCN(C(=O)CCc2nnc(C3(c4ccc(Cl)cc4)CCC3)o2)C1 (configuration not stated)
## Output inactive

## Input Kindly provide the recorded test outcome for the following compound: COc1ccc(S(=O)(=O)/N=C2\C=C(NS(=O)(=O)c3ccccc3)C(=O)c3ccccc32)cc1
## Output active

## Input Kindly provide the recorded test outcome for the following compound: NS(=O)(=O)c1ccc(CCNC(=O)c2nc(CS(=O)(=O)c3ccc(Cl)cc3)no2)cc1
## Output inactive

###

biological target: Neuropilin-1 (Homo sapiens); experiment: NRP-1/CendR peptide interaction modulators – biochemical, fluorescence polarization, uHTS, primary screen (AID 602438); details: FAM-RPARPAR peptide binding to NRP-1, fluorescence polarization; at 25 µM
Among all 360,000 compounds or so, about 3,100 (0.86%) were called active.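 Rule for the calls: active = inhibition or corrected inhibition above about 18%, plus a signal ratio from 0.5 to 1.5 (limit read from the data, passing the limit was not always enough); inactive = the rest.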 Only a selection was taken, and actives are over-represented in it overall.
Respond only with the outcome that fits, drawn from 1.0 for active, 0.0 for inactive

Reference set (2 entries):
CCOC(=O)c1c(C)nn(-c2ncccc2NC(=O)CCC(=O)O)c1C
0.0
COc1ccc(Cl)cc1S(=O)(=O)N1CCN(CC(=O)C(C)(C)C)CC1
1.0

## Input Kindly provide the recorded test outcome for the following compound: CCCOc1ccc(/C(O)=C2/C(=O)C(=O)N(CCN(C)C)C2c2ccc(OC)c(OC)c2)cc1 (stereo not given)
## Output 0.0

## Input Kindly provide the recorded test outcome for the following compound: C=CCOc1ccc(C2/C(=C(\O)c3c(C)[nH]c(C(=O)OC)c3C)C(=O)C(=O)N2CCN(C)C)cc1 (stereo not given)
## Output 1.0

## Input Kindly provide the recorded test outcome for the following compound: COc1cccc(C2/C(=C(/O)c3ccc(F)cc3)C(=O)C(=O)N2CCN(C)C)c1 (stereo not given)
## Output 0.0

###

target: Neuropilin-1 (Homo sapiens) (UniProt O14786); assay: NRP-1/CendR peptide interaction modulators – biochemical, fluorescence polarization, uHTS, primary screen (AID 602438); details: FAM-RPARPAR peptide binding to NRP-1, fluorescence polarization; at 25 µM
The campaign covered roughly 360,000 compounds. About 3,100 (0.86%) were called active.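 The calls were made as follows: active = inhibition or corrected inhibition above about 18%, plus a signal ratio from 0.5 to 1.5 (limit read from the data, passing the limit was not always enough); inactive = the rest.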 The full list was thinned out, with actives kept by preference.
Respond only with the outcome that fits, drawn from 1 (yes) = active, 0 (no) = inactive

Reference set (5 entries):
CC(NCc1nc2ccccc2n1C)C12CC3CC(CC(C3)C1)C2 (stereo unspecified)
0 (no)
Cc1ccc(S(=O)(=O)N2CCC(=O)N([C@H](COCc3ccccc3)Cc3ccccc3)CC2)cc1
0 (no)
O=C(CCl)NNc1cccc(Cl)n1
0 (no)
Cc1cc(=O)oc2c(C)c(OCC(=O)NCCc3ccc(S(N)(=O)=O)cc3)ccc12
0 (no)
CC(C)Oc1ccc(CC(=O)NNC(=S)Nc2ccc(Br)cc2)cc1
0 (no)

## Input Kindly provide the recorded test outcome for the following compound: COc1ccccc1OCCC(=O)OCC(=O)NC(=O)NC(C)(C)C
## Output 0 (no)

## Input Kindly provide the recorded test outcome for the following compound: Cc1scc(C(=O)NNC(=S)NCc2ccccc2)c1C
## Output 0 (no)

## Input Kindly provide the recorded test outcome for the following compound: CC(C)Oc1ccc(CCC(=O)NNC(=S)NCc2ccccc2)cc1
## Output 1 (yes)

## Input Kindly provide the recorded test outcome for the following compound: CCc1ccc(Nc2n[n+](-c3ccccc3)c(-c3cccc(Cl)c3Cl)s2)cc1
## Output 0 (no)

## Input Kindly provide the recorded test outcome for the following compound: COc1cc(Br)c(-c2sc(Nc3ccccc3)n[n+]2-c2ccccc2)cc1OC
## Output 1 (yes)

## Input Kindly provide the recorded test outcome for the following compound: COc1ccc(C)cc1Nc1n[n+](-c2ccccc2)c(-c2cccc(Cl)c2Cl)s1
## Output 0 (no)

###

biological target: Neuropilin-1 (Homo sapiens); assay: NRP-1/CendR peptide interaction modulators – biochemical, fluorescence polarization, uHTS, primary screen (AID 602438); settings: FAM-RPARPAR peptide binding to NRP-1, fluorescence polarization; at 25 µM
The campaign covered roughly 360,000 compounds. About 3,100 (0.86%) were called active.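 How the source made its calls: active means inhibition or corrected inhibition above about 18%, plus a signal ratio from 0.5 to 1.5 (limit read from the data, passing the limit was not always enough); inactive means the rest.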 This excerpt belongs to a sample that is enriched for actives.
Respond only with the outcome that fits, drawn from yes for active, no for inactive

Reference set (10 entries):
O=c1nc(NO)ccn1C1CCCO1 (stereo not given)
no
CN(C)CCOC(=O)C(c1ccccc1)C1(O)CCCC1 (stereo not given)
no
COc1cccc(N(C(=O)c2ccn[nH]2)C2(C(=O)Nc3c(C)cccc3C)CCCCC2)c1
yes
O=C(CSc1n[nH]c(-c2cccnc2)n1)Nc1ccnc2ccccc12
no
CCN(CC)CCN1C(=O)C2C(C(=O)Nc3ccc(Br)cc3)C3C=CC2(O3)C1C(=O)NC1CCCCC1 (stereo not given)
no
CCCn1nc2cc(C(=O)NCc3ccccc3)ccc2c1OCC
yes
COc1ccc(COCCN2CCN(S(=O)(=O)c3ccccc3)CCC2=O)cc1
yes
CCOc1c2ccc(C(=O)NC3CCCc4ccccc43)cc2nn1CC (stereo not given)
yes
Cc1ccc(S(=O)(=O)N(CC(=O)NCCSC2CCCCC2)c2ccccc2F)cc1
no
CC1=C(C(N)=O)C(c2sccc2C)n2nnnc2N1 (stereo not given)
no

## Input Kindly provide the recorded test outcome for the following compound: Cc1ccc(S(=O)(=O)N(CC(O)CN2CCCCC2)c2cccc([N+](=O)[O-])c2)cc1 (stereo not given)
## Output no

## Input Kindly provide the recorded test outcome for the following compound: O=C(O)C(c1ccccc1)C1(O)CCCCC1 (stereo not given)
## Output no

## Input Kindly provide the recorded test outcome for the following compound: C[C@H](CO)N1C[C@H](C)[C@@H](CN(C)C(=O)c2cnccn2)Oc2ncc(Br)cc2C1=O
## Output no

## Input Kindly provide the recorded test outcome for the following compound: Cc1cccc(N2CCN(C(c3ccc(N(C)C)cc3)c3nnnn3C(C)(C)C)CC2)c1C (stereo not given)
## Output no

## Input Kindly provide the recorded test outcome for the following compound: Cc1ccc(S(=O)(=O)N(CC(O)CN2C(=O)NC(C)(C)C2=O)c2cccc([N+](=O)[O-])c2)cc1 (stereo not given)
## Output yes

###

molecular target: Neuropilin-1 (Homo sapiens); assay: NRP-1/CendR peptide interaction modulators – biochemical, fluorescence polarization, uHTS, primary screen (AID 602438); conditions: FAM-RPARPAR peptide binding to NRP-1, fluorescence polarization; at 25 µM; stronger effect = higher value
The campaign covered roughly 360,000 compounds. About 3,100 (0.86%) were called active. The list comes from a sample in which actives are over-represented; it also holds close analogues and randomly drawn compounds.
test_readout: inhibition (%)
A number alone suffices; assume %.

# count of solved cases: 5
Nc1nc2c(Br)ccc(Br)c2cc1C(=O)NCCc1ccccc1
6.1
Cc1ccc(-c2noc(C3CCCN(C(=O)c4cccc(Cl)c4)C3)n2)o1 (centres undefined)
3.6
O=C(NCC(O)c1ccc([N+](=O)[O-])cc1)C1CCCCC1 (centres undefined)
11.3
CCCNC(=O)c1onc(CSc2ccc(F)cc2)c1C(=O)NC(C)C
5.5
CN(CCCNC(=O)CN1C(=O)CC(C)(C)S(=O)(=O)c2ccccc21)C1CCCCC1
12.4

inhibition value, target or system Neuropilin-1 (Homo sapiens), for CCOc1ncccc1C(=O)Nc1ccc(S(=O)(=O)Nc2nc(C)cc(C)n2)cc1 : -0.6

inhibition value, target or system Neuropilin-1 (Homo sapiens), for O=C(C1CCN(CC2CCCCC2)CC1)N1CCCC1 : 10.7

Source: PubChem BioAssay AID602438
